Each entry below lists one item and its recorded IC50 value.
# Experimental System: Steroid 5-alpha-reductase (Rattus norvegicus, UniProt P24008+P31214)
# Sequence (P24008 whole entry): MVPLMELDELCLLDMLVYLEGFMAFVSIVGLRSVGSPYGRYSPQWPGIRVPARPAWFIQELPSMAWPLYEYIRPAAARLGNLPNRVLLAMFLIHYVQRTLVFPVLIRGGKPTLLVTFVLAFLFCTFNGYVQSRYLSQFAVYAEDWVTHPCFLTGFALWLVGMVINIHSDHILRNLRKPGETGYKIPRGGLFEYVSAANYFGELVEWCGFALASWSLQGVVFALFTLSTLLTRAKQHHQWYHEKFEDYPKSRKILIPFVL
# Sequence (P31214 whole entry): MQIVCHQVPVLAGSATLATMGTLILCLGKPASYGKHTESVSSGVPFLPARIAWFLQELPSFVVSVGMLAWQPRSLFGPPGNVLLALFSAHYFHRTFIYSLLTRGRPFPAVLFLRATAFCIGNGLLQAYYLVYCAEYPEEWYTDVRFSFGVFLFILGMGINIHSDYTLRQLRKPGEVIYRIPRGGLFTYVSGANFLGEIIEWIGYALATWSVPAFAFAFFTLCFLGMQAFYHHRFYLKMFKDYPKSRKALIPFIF
# Assay Text: Inhibition of Steroid 5-alpha-reductase from Dawley rat prostate
# Assay type: tissue-based, Prostate gland
Give a bare numeral; the unit nM is implied.

// IC50 lookup, compound = CCc1ccc(COc2ccc(C(=O)c3cn(CCCC(=O)O)c4ccccc34)cc2OCCCN2CCN(c3ccccc3OC)CC2)cc1 , result: 4

For this compound ( Cc1ccc(COc2ccc(C(=O)c3cn(CCCC(=O)O)c4ccccc34)cc2OCCCN2CCN(c3ccccc3OC(C)C)CC2)cc1 ), measured IC50 is 2.9

Field IC50 (entry COc1ccccc1N1CCN(CCCOc2ccc(C(=O)c3cn(CCCC(=O)O)c4ccccc34)cc2OCc2ccccc2)CC1 ) reads 360

Record summary for COc1ccccc1N1CCN(CCCOc2cc(C(=O)Nc3ccccc3OCCCC(=O)O)ccc2OCc2ccccc2)CC1 : reported IC50 = 490

# compound COc1ccccc1N1CCN(CCC(Oc2ccc(C(=O)Nc3ccccc3OCCCC(=O)O)cc2)c2ccccc2)CC1 (stereo not drawn) ; its IC50 = 920

The reported value for COc1ccccc1N1CCN(CCCOc2cc(C(=O)c3cn(CCCC(=O)O)c4ccccc34)ccc2OCc2ccc(C)cc2)CC1 in terms of IC50 is 3.5
